For each record, write down the corresponding viability, T/C.
Tested on: 186277-243-T-J2-PDC complex spheroid viability
Assay: Anticancer human tumor 186277-243-T-J2-PDC patient-derived colon adenocarcinoma cell line growth inhibition [POLQ]
Details: second compound 0.316 µM; first compound 0.001 µM; stronger effect = lower value
Experimental: Multicellular complex tumor spheroid response to Polymerase (POL) inhibitors (novobiocin, ART-558, RP6685) in combination with a variety of drugs and investigational agents in selected tumor cell lines The POL inhibitors (novobiocin, ART-558, and RP6685) were evaluated both individually and in combination with standard of care and investigational anticancer small molecules within a complex spheroid model of solid tumors. . […]
# number only, unit % dropped from output

Lookup result for CC[C@@]1(O)C(=O)OCc2c1cc1n(c2=O)Cc2cc3c(CN(C)C)c(O)ccc3nc2-1 + Nc1ccc(C#CCN(C(=O)Cc2ncc(C(F)(F)F)cc2C(F)(F)F)c2ccc(F)cc2)nn1 ; measured viability, T/C: 87.2

Kindly note the recorded viability, T/C for Cn1ncnc1[C@H]1c2n[nH]c(=O)c3cc(F)cc(c23)N[C@@H]1c1ccc(F)cc1 + Nc1ccc(C#CCN(C(=O)Cc2ncc(C(F)(F)F)cc2C(F)(F)F)c2ccc(F)cc2)nn1 , which is 110

Given item Cn1ncnc1[C@H]1c2n[nH]c(=O)c3cc(F)cc(c23)N[C@@H]1c1ccc(F)cc1 + COC1C(OC(N)=O)C(O)C(Oc2ccc3c(O)c(NC(=O)c4ccc(O)c(CC=C(C)C)c4)c(=O)oc3c2C)OC1(C)C , the value recorded as its viability, T/C is 111

GET /value?item= CC[C@@]1(O)C(=O)OCc2c1cc1n(c2=O)Cc2cc3c(CN(C)C)c(O)ccc3nc2-1 + Cc1cccc(N(C)C(=O)C2C(O)CCN2c2nc(C)cc(C(F)(F)F)c2C#N)c1 &field=viability, T/C returns 106

// sample Cn1ncnc1[C@H]1c2n[nH]c(=O)c3cc(F)cc(c23)N[C@@H]1c1ccc(F)cc1 + Cc1cccc(N(C)C(=O)C2C(O)CCN2c2nc(C)cc(C(F)(F)F)c2C#N)c1 , its viability, T/C was 92.6

viability, T/C measured on CC[C@@]1(O)C(=O)OCc2c1cc1n(c2=O)Cc2cc3c(CN(C)C)c(O)ccc3nc2-1 + COC1C(OC(N)=O)C(O)C(Oc2ccc3c(O)c(NC(=O)c4ccc(O)c(CC=C(C)C)c4)c(=O)oc3c2C)OC1(C)C = 113

----------
System: 186277-243-T-J2-PDC complex spheroid viability
Experiment: Anticancer human tumor 186277-243-T-J2-PDC cell line growth inhibition [POLQ];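 note: spheroids exposed to compounds for seven days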;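 for viability, T/C: 100% = DMSO vehicle control viability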
Conditions: second compound 0.316 µM; first compound 3.16 µM; stronger effect = lower value
property name: viability, T/C (%)
Use % as the unit, but write only the number.

CC1COCCN1c1cc(C2(S(C)(=N)=O)CC2)nc(-c2ccnc3[nH]ccc23)n1 (stereo not given) + COC1C(OC(N)=O)C(O)C(Oc2ccc3c(O)c(NC(=O)c4ccc(O)c(CC=C(C)C)c4)c(=O)oc3c2C)OC1(C)C yielded viability, T/C of 6.74

Noted for CCc1cc2c(N3CCc4c(cc(Cn5ccnc5)cc4-c4cn(C)nc4C(F)(F)F)C3=O)ccnc2c(OC)n1 + Nc1ccc(C#CCN(C(=O)Cc2ncc(C(F)(F)F)cc2C(F)(F)F)c2ccc(F)cc2)nn1 : its viability, T/C reads 104

Please fill in: viability, T/C reported for CC1COCCN1c1cc(-c2ccnn2C)c2ccnc(-c3ccn[nH]3)c2n1 (stereo not given) + Nc1ccc(C#CCN(C(=O)Cc2ncc(C(F)(F)F)cc2C(F)(F)F)c2ccc(F)cc2)nn1 = 6.81

The compound O=C(c1cc(Cc2n[nH]c(=O)c3ccccc23)ccc1F)N1CCN(C(=O)C2CC2)CC1 + Cc1cccc(N(C)C(=O)C2C(O)CCN2c2nc(C)cc(C(F)(F)F)c2C#N)c1 showed viability, T/C equal to 112

Reported viability, T/C ( COc1cc2cc(C(=O)CCC(=O)O)sc2cc1OC + Nc1ccc(C#CCN(C(=O)Cc2ncc(C(F)(F)F)cc2C(F)(F)F)c2ccc(F)cc2)nn1 ) = 89.9

----------
Test system: 186277-243-T-J2-PDC complex spheroid viability
Assay: Anticancer human tumor 186277-243-T-J2-PDC cell line growth inhibition [POLQ];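 note: spheroids exposed to compounds for seven days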
Conditions: curve of first compound; second compound 0.1 µM
property name: pIC50
Hey, just a heads up that pIC50 is the negative log base 10 of the concentration in molar.

186277-243-T-J2-PDC complex spheroid viability assay, compound C#Cc1c(F)ccc2cc(O)cc(-c3ncc4c(N5CC6CCC(C5)N6)nc(OCC56CCCN5CC(F)C6)nc4c3F)c12 (stereo not given) + Nc1ccc(C#CCN(C(=O)Cc2ncc(C(F)(F)F)cc2C(F)(F)F)c2ccc(F)cc2)nn1 , recorded pIC50 = 6.58

Let me check: COc1cccc2c1C(=O)c1c(O)c3c(c(O)c1C2=O)CC(O)(C(=O)CO)CC3OC1CC(N)C(O)C(C)O1 (stereo not given) + COC1C(OC(N)=O)C(O)C(Oc2ccc3c(O)c(NC(=O)c4ccc(O)c(CC=C(C)C)c4)c(=O)oc3c2C)OC1(C)C , system 186277-243-T-J2-PDC complex spheroid viability, measured pIC50 is 7.05

Lab entry: 186277-243-T-J2-PDC complex spheroid viability assay, compound COc1cc(C2c3cc4c(cc3C(OC3OC5COC(C)OC5C(O)C3O)C3COC(=O)C23)OCO4)cc(OC)c1O (stereo not given) + Cc1cccc(N(C)C(=O)C2C(O)CCN2c2nc(C)cc(C(F)(F)F)c2C#N)c1 , pIC50 = 6.05

# lookup: CC1COCCN1c1cc(C2(O)CC3CCC(C2)O3)c2cnn(-c3ccn[nH]3)c2n1 (stereo not given) + Cc1cccc(N(C)C(=O)C2C(O)CCN2c2nc(C)cc(C(F)(F)F)c2C#N)c1 on 186277-243-T-J2-PDC complex spheroid viability, pIC50 = 7.37

Record CCc1c2c(nc3ccc(O)cc13)-c1cc3c(c(=O)n1C2)COC(=O)[C@]3(O)CC + COC1C(OC(N)=O)C(O)C(Oc2ccc3c(O)c(NC(=O)c4ccc(O)c(CC=C(C)C)c4)c(=O)oc3c2C)OC1(C)C / 186277-243-T-J2-PDC complex spheroid viability, pIC50 recorded as 8.20

pIC50 of COc1cccc2c1C(=O)c1c(O)c3c(c(O)c1C2=O)CC(O)(C(=O)CO)CC3OC1CC(N)C(O)C(C)O1 (stereo not given) + Nc1ccc(C#CCN(C(=O)Cc2ncc(C(F)(F)F)cc2C(F)(F)F)c2ccc(F)cc2)nn1 , assay on 186277-243-T-J2-PDC complex spheroid viability, is 6.60

Field pIC50 (186277-243-T-J2-PDC complex spheroid viability), entry CC1COCCN1c1cc(C2(S(C)(=N)=O)CC2)nc(-c2ccnc3[nH]ccc23)n1 (stereo not given) + Nc1ccc(C#CCN(C(=O)Cc2ncc(C(F)(F)F)cc2C(F)(F)F)c2ccc(F)cc2)nn1 : 5.75

Response field pIC50 (186277-243-T-J2-PDC complex spheroid viability) for item CC[C@@]1(O)C(=O)OCc2c1cc1n(c2=O)Cc2cc3c(CN(C)C)c(O)ccc3nc2-1 + Cc1cccc(N(C)C(=O)C2C(O)CCN2c2nc(C)cc(C(F)(F)F)c2C#N)c1 : 7.01

Summary line: COc1ccc([C@@H](O)c2cc(-c3ncnc4cc(N5CCOCC5)ccc34)c(F)cc2Cl)nn1 + Cc1cccc(N(C)C(=O)C2C(O)CCN2c2nc(C)cc(C(F)(F)F)c2C#N)c1 , 186277-243-T-J2-PDC complex spheroid viability, reported pIC50 = 5.25

Result for C#Cc1c(F)ccc2cc(O)cc(-c3ncc4c(N5CC6CCC(C5)N6)nc(OCC56CCCN5CC(F)C6)nc4c3F)c12 (stereo not given) + COC1C(OC(N)=O)C(O)C(Oc2ccc3c(O)c(NC(=O)c4ccc(O)c(CC=C(C)C)c4)c(=O)oc3c2C)OC1(C)C , tested on 186277-243-T-J2-PDC complex spheroid viability, pIC50: 7.04

Short answer on 186277-243-T-J2-PDC complex spheroid viability for CC1COCCN1c1cc(C2(O)CC3CCC(C2)O3)c2cnn(-c3ccn[nH]3)c2n1 (stereo not given) + Nc1ccc(C#CCN(C(=O)Cc2ncc(C(F)(F)F)cc2C(F)(F)F)c2ccc(F)cc2)nn1 , pIC50: 7.16

----------
Tested on: 186277-243-T-J2-PDC complex spheroid viability
Experiment: Anticancer human tumor 186277-243-T-J2-PDC cell line growth inhibition [POLQ];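 note: spheroids exposed to compounds for seven days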;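 for viability, T/C: 100% = DMSO vehicle control viability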
Conditions: second compound 0.1 µM; first compound 1 µM; stronger effect = lower value
Provide the reported viability, T/C of each item.
Reply with just the number (in %).

viability, T/C of CCc1c2c(nc3ccc(O)cc13)-c1cc3c(c(=O)n1C2)COC(=O)[C@]3(O)CC + Cc1cccc(N(C)C(=O)C2C(O)CCN2c2nc(C)cc(C(F)(F)F)c2C#N)c1 , assay on 186277-243-T-J2-PDC complex spheroid viability, is 7.71

The molecule COc1cc2cc(C(=O)CCC(=O)O)sc2cc1OC + Cc1cccc(N(C)C(=O)C2C(O)CCN2c2nc(C)cc(C(F)(F)F)c2C#N)c1 , when measured on 186277-243-T-J2-PDC complex spheroid viability, yielded viability, T/C of 99.7

The molecule O=C(c1cc(Cc2n[nH]c(=O)c3ccccc23)ccc1F)N1CCN(C(=O)C2CC2)CC1 + COC1C(OC(N)=O)C(O)C(Oc2ccc3c(O)c(NC(=O)c4ccc(O)c(CC=C(C)C)c4)c(=O)oc3c2C)OC1(C)C , tested on 186277-243-T-J2-PDC complex spheroid viability, showed viability, T/C of 97.3

The reported numbers originate from PubChem BioAssay AID1963854.
